# target system: T1, cynoNectin4-mFc (cyno, UniProt A0A2K5WES1 32-349)
# T1 construct: Immobilized on the SPR chip; also called cyanoNectin4; not shown: mFc (mouse Fc)
# T1 sequence: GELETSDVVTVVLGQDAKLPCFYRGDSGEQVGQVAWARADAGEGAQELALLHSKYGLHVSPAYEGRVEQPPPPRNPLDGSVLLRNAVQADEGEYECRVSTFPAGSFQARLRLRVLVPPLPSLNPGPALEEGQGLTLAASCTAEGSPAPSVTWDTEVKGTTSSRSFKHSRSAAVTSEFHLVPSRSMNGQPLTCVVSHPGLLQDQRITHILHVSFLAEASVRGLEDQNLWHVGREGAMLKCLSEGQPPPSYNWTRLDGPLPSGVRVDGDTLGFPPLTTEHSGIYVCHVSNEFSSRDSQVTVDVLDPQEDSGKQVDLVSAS
# test method notes: SPR, cynoNectin4-mFc immobilized, pH 6.5
property name: kon (M⁻¹ s⁻¹)
Dear colleague, please return just the value in M⁻¹ s⁻¹, with no unit written.

Examples from the recorded data:
{"binder": "BAP-143-00-06 (antibody, V domains shown, Used as a conjugate with a linker payload (CAB ADC)) VH: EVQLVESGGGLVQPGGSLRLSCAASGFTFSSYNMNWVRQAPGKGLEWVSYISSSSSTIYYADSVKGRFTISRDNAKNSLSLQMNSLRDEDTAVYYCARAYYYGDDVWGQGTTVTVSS VL: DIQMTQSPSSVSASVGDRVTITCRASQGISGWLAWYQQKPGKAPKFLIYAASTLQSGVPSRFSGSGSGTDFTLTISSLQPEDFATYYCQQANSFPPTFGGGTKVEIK", "kon / M⁻¹ s⁻¹": "1.93e+06"}
{"binder": "BAP-143-00-04 (antibody, V domains shown, Used as a conjugate with a linker payload (CAB ADC)) VH: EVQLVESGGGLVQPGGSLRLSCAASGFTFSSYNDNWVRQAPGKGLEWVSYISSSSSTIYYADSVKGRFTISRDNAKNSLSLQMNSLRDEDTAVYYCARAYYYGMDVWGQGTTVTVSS VL: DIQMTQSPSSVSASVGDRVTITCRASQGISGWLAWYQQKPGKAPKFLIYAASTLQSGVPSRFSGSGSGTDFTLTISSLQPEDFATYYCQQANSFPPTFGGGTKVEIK", "kon / M⁻¹ s⁻¹": "1.6e+06"}

// next entry
kon in this record for BAP-143-00-02 (antibody, V domains shown, Used as a conjugate with a linker payload (CAB ADC)) VH: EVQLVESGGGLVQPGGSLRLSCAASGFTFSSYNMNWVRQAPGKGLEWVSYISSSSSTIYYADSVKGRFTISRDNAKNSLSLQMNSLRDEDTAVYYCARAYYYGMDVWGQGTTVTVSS VL: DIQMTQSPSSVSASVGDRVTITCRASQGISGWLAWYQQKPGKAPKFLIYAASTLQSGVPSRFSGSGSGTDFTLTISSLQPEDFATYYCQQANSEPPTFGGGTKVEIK : 380000
